Give measured Pre-emergence effect at 80 g/ha against PHBPU in % for each item. Keep answers brief.
Tested on: PHBPU (Pharbitis purpurea)
procedure.details: Pre-emergence herbicidal effect against PHBPU
Assay type: in vivo
test.context: 80 g/ha, scored visually after 3 weeks

Reported Pre-emergence effect at 80 g/ha against PHBPU in % for "CS(=O)(=O)c1c(OC(F)F)ccc(C(=O)Nc2nnco2)c1Cl" : what is it?
90%

Reported Pre-emergence effect at 80 g/ha against PHBPU in % for C[S+]([O-])c1c(OC(F)F)ccc(C(=O)Nc2nnco2)c1Cl (racemic) : what is it?
80%

Reported Pre-emergence effect at 80 g/ha against PHBPU in % for "CS(=O)(=O)c1c(OC(F)(F)F)ccc(C(=O)Nc2nnco2)c1Cl" : what is it?
100%

Reported Pre-emergence effect at 80 g/ha against PHBPU in % for C[S+]([O-])c1c(OC(F)(F)F)ccc(C(=O)Nc2nnco2)c1Cl (racemic) : what is it?
90%

----------
Give measured Post-emergence effect at 80 g/ha against PHBPU in % for each item. Keep answers brief.
System: PHBPU (Pharbitis purpurea)
procedure.details: Post-emergence herbicidal action against PHBPU
Assay type: in vivo
test.context: 80 g/ha, visual assessment after about 3 weeks
Response body: numeric value in %, unit text excluded.

Param readout = Post-emergence effect at 80 g/ha against PHBPU in %; param system = PHBPU (Pharbitis purpurea); param query = C[S+]([O-])c1c(OC(F)(F)F)ccc(C(=O)Nc2nnco2)c1Cl (racemic) ; response: value
100

Param readout = Post-emergence effect at 80 g/ha against PHBPU in %; param system = PHBPU (Pharbitis purpurea); param query = "CS(=O)(=O)c1c(OC(F)F)ccc(C(=O)Nc2nnco2)c1Cl" ; response: value
100

Param readout = Post-emergence effect at 80 g/ha against PHBPU in %; param system = PHBPU (Pharbitis purpurea); param query = "CS(=O)(=O)c1c(OC(F)(F)F)ccc(C(=O)Nc2nnco2)c1Cl" ; response: value
100

Param readout = Post-emergence effect at 80 g/ha against PHBPU in %; param system = PHBPU (Pharbitis purpurea); param query = C[S+]([O-])c1c(OC(F)F)ccc(C(=O)Nc2nnco2)c1Cl (racemic) ; response: value
100

Param readout = Post-emergence effect at 80 g/ha against PHBPU in %; param system = PHBPU (Pharbitis purpurea); param query = "CSc1c(OC(F)(F)F)ccc(C(=O)Nc2nnco2)c1Cl" ; response: value
90

----------
Test system: AMARE (Amaranthus retroflexus)
procedure.details: Post-emergence herbicidal action against AMARE
Assay type: in vivo
test.context: 80 g/ha, visual assessment after about 3 weeks
Method: Seeds of monocotyledonous and dicotyledonous weed and crop plants are laid out in sandy loam soil in wood-fiber pots, covered with soil and cultivated in a greenhouse under good growth conditions. 2 to 3 weeks after sowing, the trial plants are treated at the one-leaf stage. […]
Give measured Post-emergence effect at 80 g/ha against AMARE in % for each item. Keep answers brief.
Response body: numeric value in %, unit text excluded.

Param readout = Post-emergence effect at 80 g/ha against AMARE in %; param system = AMARE (Amaranthus retroflexus); param query = CS(=O)(=O)c1c(OC(F)F)ccc(C(=O)Nc2nnco2)c1Cl [Example 1-25] ; response: value
100

Param readout = Post-emergence effect at 80 g/ha against AMARE in %; param system = AMARE (Amaranthus retroflexus); param query = CSc1c(OC(F)F)ccc(C(=O)Nc2nnco2)c1Cl [Example 1-21] ; response: value
100

Param readout = Post-emergence effect at 80 g/ha against AMARE in %; param system = AMARE (Amaranthus retroflexus); param query = C[S+]([O-])c1c(OC(F)F)ccc(C(=O)Nc2nnco2)c1Cl (racemic) [Example 1-22] ; response: value
100

Param readout = Post-emergence effect at 80 g/ha against AMARE in %; param system = AMARE (Amaranthus retroflexus); param query = C[S+]([O-])c1c(OC(F)(F)F)ccc(C(=O)Nc2nnco2)c1Cl (racemic) [Example 1-32] ; response: value
100

Param readout = Post-emergence effect at 80 g/ha against AMARE in %; param system = AMARE (Amaranthus retroflexus); param query = CS(=O)(=O)c1c(OC(F)(F)F)ccc(C(=O)Nc2nnco2)c1Cl [Example 1-35] ; response: value
90

Param readout = Post-emergence effect at 80 g/ha against AMARE in %; param system = AMARE (Amaranthus retroflexus); param query = CSc1c(OC(F)(F)F)ccc(C(=O)Nc2nnco2)c1Cl [Example 1-31] ; response: value
100

Recorded values, source patent US20240287007A1.
